assay: Amount of toxicant remaining in the test container after membrane diffusion raft tests; assay type: physicochemical; parameters: key: 0: empty or trace; +: some; + +: ample; details: after completion of membrane diffusion raft tests
TEST_READOUT: Contents at the end of test (amount of toxicants remaining in the test container)

>  <CHEMICAL_STRUCTURE>
CCCCCCCCCCCCCCn1sc(Cl)c(Cl)c1=O

>  <REPORTED_RESULT>
+ +

$$$$
>  <CHEMICAL_STRUCTURE>
CCCCCCCCn1scc(Br)c1=O

>  <REPORTED_RESULT>
+

$$$$
>  <CHEMICAL_STRUCTURE>
COc1cc(Cl)ccc1-n1sc(Cl)cc1=O

>  <REPORTED_RESULT>
+ +

$$$$
>  <CHEMICAL_STRUCTURE>
O=c1c(Br)c(Cl)sn1-c1ccc(Cl)cc1

>  <REPORTED_RESULT>
+ +

$$$$
>  <CHEMICAL_STRUCTURE>
CCCCCCCCCCCCn1scc(Br)c1=O

>  <REPORTED_RESULT>
+ +

$$$$
>  <CHEMICAL_STRUCTURE>
O=c1c(Cl)c(Cl)sn1CCc1ccccc1

>  <REPORTED_RESULT>
+ +

$$$$

* * *

system: barnacle; assay: Membrane Diffusion Raft Trials, barnacle control; type: in vivo, barnacles; details: membrane test, average 15 to 16 weeks of immersion

>  <CHEMICAL_STRUCTURE>
Cc1c(Cl)sn(CCc2ccccc2)c1=O

>  <STUDY_TARGET>
barnacle

>  <Barnacle Control>
+ +

$$$$
>  <CHEMICAL_STRUCTURE>
O=c1cc(Cl)sn1-c1ccc(Cl)cc1

>  <STUDY_TARGET>
barnacle

>  <Barnacle Control>
+ +

$$$$
>  <CHEMICAL_STRUCTURE>
COc1c(Cl)cccc1-n1sc(Cl)c(Cl)c1=O

>  <STUDY_TARGET>
barnacle

>  <Barnacle Control>
+

$$$$
>  <CHEMICAL_STRUCTURE>
CCCCCCCCCCCCn1sc(Cl)cc1=O

>  <STUDY_TARGET>
barnacle

>  <Barnacle Control>
+

$$$$
>  <CHEMICAL_STRUCTURE>
O=c1c(Cl)c(Cl)sn1-c1ccccc1

>  <STUDY_TARGET>
barnacle

>  <Barnacle Control>
+ +

$$$$
>  <CHEMICAL_STRUCTURE>
O=c1c(Cl)c(Cl)sn1Cc1ccccc1

>  <STUDY_TARGET>
barnacle

>  <Barnacle Control>
+ +

$$$$
>  <CHEMICAL_STRUCTURE>
COc1cc(Cl)ccc1-n1sc(Cl)cc1=O

>  <STUDY_TARGET>
barnacle

>  <Barnacle Control>
+

$$$$
>  <CHEMICAL_STRUCTURE>
O=c1c(Br)csn1Cc1ccc(Cl)cc1

>  <STUDY_TARGET>
barnacle

>  <Barnacle Control>
+

$$$$
>  <CHEMICAL_STRUCTURE>
O=c1ccsn1-c1ccc(Cl)cc1

>  <STUDY_TARGET>
barnacle

>  <Barnacle Control>
+

$$$$
>  <CHEMICAL_STRUCTURE>
Cc1ccc(-n2sc(Cl)c(C)c2=O)cc1C

>  <STUDY_TARGET>
barnacle

>  <Barnacle Control>
+ +

$$$$
>  <CHEMICAL_STRUCTURE>
CCCCCCCCn1sc(Cl)c(Cl)c1=O

>  <STUDY_TARGET>
barnacle

>  <Barnacle Control>
+ +

$$$$
>  <CHEMICAL_STRUCTURE>
O=c1cc(Cl)sn1-c1ccc(Oc2ccccc2)cc1

>  <STUDY_TARGET>
barnacle

>  <Barnacle Control>
+ +

$$$$
>  <CHEMICAL_STRUCTURE>
COc1c(Cl)cccc1-n1sc(Cl)cc1=O

>  <STUDY_TARGET>
barnacle

>  <Barnacle Control>
+

$$$$
